Could you please report measured IC50 for the items listed next?
MEASUREMENT TARGET: Phospho-EGFR (Tyr1068) in H1975 C797S cells (CRISPR-edited EGFR C797S) (Homo sapiens, UniProt P00533, C797S/L858R/T790M)
Sequence (P00533 25-1210 T790M/C797S/L858R): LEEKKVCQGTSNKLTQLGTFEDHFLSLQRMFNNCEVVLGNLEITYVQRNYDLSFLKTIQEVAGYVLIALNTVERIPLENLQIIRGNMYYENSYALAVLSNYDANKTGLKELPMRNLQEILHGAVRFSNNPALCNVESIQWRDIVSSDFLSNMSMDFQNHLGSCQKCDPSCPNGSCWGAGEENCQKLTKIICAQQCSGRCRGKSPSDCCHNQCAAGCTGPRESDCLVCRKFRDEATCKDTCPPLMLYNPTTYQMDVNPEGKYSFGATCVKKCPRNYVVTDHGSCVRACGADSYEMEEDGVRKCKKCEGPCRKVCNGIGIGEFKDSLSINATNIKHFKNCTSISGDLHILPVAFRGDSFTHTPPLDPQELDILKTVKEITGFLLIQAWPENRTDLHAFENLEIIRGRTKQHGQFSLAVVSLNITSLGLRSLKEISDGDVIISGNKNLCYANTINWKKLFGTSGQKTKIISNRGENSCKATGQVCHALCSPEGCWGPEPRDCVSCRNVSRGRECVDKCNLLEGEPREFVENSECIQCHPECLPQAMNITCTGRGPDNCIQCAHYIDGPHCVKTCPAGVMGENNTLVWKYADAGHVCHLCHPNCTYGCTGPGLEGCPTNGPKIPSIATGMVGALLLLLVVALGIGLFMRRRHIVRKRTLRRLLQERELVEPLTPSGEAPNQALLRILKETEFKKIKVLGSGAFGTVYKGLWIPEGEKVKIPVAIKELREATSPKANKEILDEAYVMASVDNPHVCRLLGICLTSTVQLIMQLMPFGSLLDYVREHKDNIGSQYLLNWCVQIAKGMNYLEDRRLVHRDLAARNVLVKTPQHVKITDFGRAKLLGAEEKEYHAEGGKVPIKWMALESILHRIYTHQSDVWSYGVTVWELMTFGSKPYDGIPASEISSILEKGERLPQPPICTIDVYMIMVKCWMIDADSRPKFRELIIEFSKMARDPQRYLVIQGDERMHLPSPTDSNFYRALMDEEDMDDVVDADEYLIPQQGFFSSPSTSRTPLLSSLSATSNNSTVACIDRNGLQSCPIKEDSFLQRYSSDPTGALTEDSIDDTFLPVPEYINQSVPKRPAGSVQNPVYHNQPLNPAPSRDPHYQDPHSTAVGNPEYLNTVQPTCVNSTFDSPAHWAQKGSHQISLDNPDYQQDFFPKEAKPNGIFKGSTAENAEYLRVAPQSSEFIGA
PROCEDURE SUMMARY: HTRF pEGFR/total EGFR in H1975 C797S cells
CONDITION PARAMETERS: ratio pEGFR/total EGFR, compound 3 hours
Description: […]. Once adhered (after 24 h) cells were treated with compounds dissolved in DMSO at a final concentration of 0.1% DMSO in media. Compounds were diluted in media then added to cells for 3 hours in duplicate. […] Cells were lysed on a plate shaker (2000 rpm) for 30 minutes at room temperature. pEGFR expression was monitored using the Cisbio Phospho-EGFR (Tyr1068) cellular kit (64EG1PEH). […] Fluorescence emission was read at two different wavelengths (665 nm and 620 nm) on a PheraStar. […]

Exercise: # query: IC50 of entry C#Cc1cc(=O)n(-c2ccc([N+](=O)[O-])cc2)c2nc(Nc3ccccc3OC)ncc12
Key: > 3000 nM

Exercise: Please answer likewise for C#Cc1cc(=O)n(C)c2nc(Nc3ccc(N4CCN(C)CC4)c(NC(C)=O)c3)ncc12
Key: 500 to 1000 nM

Exercise: Quick one: C#Cc1cc(=O)n(C[C@@H]2CCC(=O)N2)c2nc(Nc3ccc(N4CCN(C)CC4)cc3)ncc12
Key: > 3000 nM

Exercise: Now the compound C#Cc1cc(=O)n2c3nc(ncc13)Nc1ccc(N3CCN(C)CC3)c(c1)COCCC2
Key: > 3000 nM

Exercise: Next compound: C#Cc1cc(=O)n(C)c2nc(Nc3cc(-c4cnn(C)c4)c(N4CCOCC4)cc3OC)ncc12
Key: 1000 to 3000 nM

Exercise: Further, for C#Cc1c(C)c(=O)n(Cc2ncco2)c2nc(Nc3ccc(N4CCN(C)CC4)cc3)ncc12 ?
Key: 1000 to 3000 nM

Exercise: Likewise for C#Cc1cc(=O)n(C)c2nc(Nc3ccc(N4CCN(C)CC4)c(OCCC(C)C)c3)ncc12 ?
Key: < 500 nM

Exercise: How about C#Cc1c(-c2cccc(F)c2Cl)c(=O)n(C)c2nc(Nc3ccc(N(C)CCN(C)C)cc3)ncc12 ?
Key: 500 to 1000 nM

Exercise: Further, for C#Cc1cc(=O)n(CC2CCOC2)c2nc(Nc3ccc(N4CCN(C)CC4)cc3)ncc12 (centres unmarked) ?
Key: < 500 nM

Exercise: Try the compound C#Cc1cc(=O)n2c3nc(ncc13)Nc1cccc(c1)OC/C=C\C2
Key: 500 to 1000 nM

Exercise: What would you report for C#Cc1cc(=O)n(-c2ccccc2)c2nc(Nc3ccc(N4CCN(CC)CC4)cc3)ncc12 ?
Key: < 500 nM

Exercise: C#Cc1cc(=O)n(C)c2nc(Nc3ccc(N4CCN(C)CC4)c(OCCC4CCCCC4)c3)ncc12 ?
Key: 500 to 1000 nM

Exercise: Same again, this time with C#Cc1c(C)c(=O)n(Cc2cnoc2)c2nc(Nc3ccc(N4CCN(C)CC4)cc3)ncc12
Key: > 3000 nM

Exercise: Query C#Cc1cc(=O)n2c3nc(ncc13)Nc1ccc(N3CCN(CCOC)CC3)c(c1)NC(=O)CCC2 next
Key: < 500 nM

Exercise: Record: C#Cc1cc(=O)n(-c2cccc(N)c2)c2nc(Nc3ccccc3OC)ncc12
Key: > 3000 nM

Exercise: Queued: C#Cc1cc(=O)n(-c2ccccc2)c2nc(Nc3ccc(N4CCNCC4)cc3)ncc12
Key: < 500 nM

Exercise: Also C#Cc1c(-c2ccccc2Cl)c(=O)n(C)c2nc(Nc3cccc(OC)c3)ncc12 , if possible.
Key: > 3000 nM

Exercise: Note, next up: C#Cc1c(C)c(=O)n(Cc2cnc[nH]2)c2nc(Nc3ccc(N4CCN(C)CC4)cc3)ncc12
Key: 1000 to 3000 nM

Exercise: Moving on to C#Cc1cc(=O)n([C@H]2CC[C@H](NC(C)=O)CC2)c2nc(Nc3ccc(N4CCN(C)CC4)cc3)ncc12
Key: < 500 nM

Exercise: For C#Cc1cc(=O)n(-c2ccccc2)c2nc(Nc3ccc(N(C)C(=O)CCOC)cc3OC)ncc12 then?
Key: 1000 to 3000 nM

src = patent US20260137703A1
